This listing pairs molecules with measured CRE.
# Species on record: Rattus norvegicus
# experimentalProtocol: Open TG-GATES - Regimen: Daily Repeat
# Format: toxicity, organism-based, Sprague-Dawley
# Design: regimen Daily Repeat, gender Male, age 6 weeks
# measurementParameters: in vivo, po, 1000 mg/kg, […], tissue Plasma, route gavage, dose level High, time 7 day
metric: CRE (mg/dL)

molecule="CC(S)C(=O)NCC(=O)O (centres undefined) [TIOPRONIN]" metric=CRE valuereported=0.1
molecule="CC(=O)[C@@]1(O)CC[C@H]2[C@@H]3C=C(Cl)C4=CC(=O)CC[C@]4(C)[C@H]3CC[C@@]21C [CHLORMADINONE]" metric=CRE valuereported=0.2
molecule="CCCCNC(=O)NS(=O)(=O)c1ccc(C)cc1 [TOLBUTAMIDE]" metric=CRE valuereported=0.2
molecule="O=C(O)c1ccccc1Nc1ccccc1 [FENAMIC ACID]" metric=CRE valuereported=0.3
